- Target of assay: A*0202 (Homo sapiens, UniProt P04439, D140Y/D185E/D98H/E176V/E277Q/G131W/G231S/I119L/I121R/I166T/I218V/L180W/L300P/L318F/N151K/N90K/P208A/P217A/Q67R/Q86G/Q94H/R138H/R169H/T345S)
- Procedure details: biochemical
- Type: binding
No end group written: not given here.
In this section we review reported pIC50 values for a set of sequences.
A value of pIC50 is the negative decimal logarithm of a concentration given in moles per litre.

Monomer sequence	pIC50
SLQDSQFEL [Peptide 1578.35]	8.85
LIQPFILYA [Peptide 1578.07]	7.15
FLSGCVISYV [Peptide 1578.32]	8.57
FLQGCIISYA [Peptide 1578.18]	8.59
GLLVGVALI [Peptide 9013.0111]	7.05

Requested read-out: pIC50. Entry: SLLTFWNPPV [Peptide 9013.0118]
7.12

Form field: reported pIC50 of TLESTPFNV [Peptide 9013.0012]
7.72
